Target system: Casein Kinase 1 (CK1 delta isoform) (Rattus norvegicus, UniProt Q06486)
Construct: a truncation at amino acid 318 of the C-terminal portion of the rat CK1 delta isoform
Sequence (Q06486 1-317): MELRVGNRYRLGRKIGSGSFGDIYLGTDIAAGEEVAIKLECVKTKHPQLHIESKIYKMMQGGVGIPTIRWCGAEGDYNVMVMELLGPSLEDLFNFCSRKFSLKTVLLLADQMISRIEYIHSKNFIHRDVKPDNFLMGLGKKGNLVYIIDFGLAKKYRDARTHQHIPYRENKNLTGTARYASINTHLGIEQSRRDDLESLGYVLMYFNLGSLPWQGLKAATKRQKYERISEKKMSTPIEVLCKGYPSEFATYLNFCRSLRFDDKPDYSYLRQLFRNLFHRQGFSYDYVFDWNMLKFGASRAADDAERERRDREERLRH
Assay notes: Kinase Selectivity Assay Casein Kinase 1
Measurement context: Tables 2a-2k, read-out: Caseine Kinase 1 IC50
Experimental readout: IC50 (µM)
Give just the number in µM; leave the unit off.

input: Provide measured IC50 value, entry: `Cc1ccccc1C(=O)n1nc(Nc2ccc(S(N)(=O)=O)cc2)nc1N`
output: 14

input: Tell me measured IC50 for `Cc1ccsc1C(=O)n1nc(Nc2ccc(S(=O)(=O)NCCN(C)C)cc2)nc1N` please.
output: 0.624

input: Could you please provide reported IC50 for `Nc1nc(Nc2ccc(S(N)(=O)=O)cc2)nn1C(=O)c1cccs1` ? Thanks!
output: 0.348

input: Provide only the value of recorded IC50 for `CNS(=O)(=O)c1ccc(Nc2nc(N)n(C(=O)c3c(F)ccc(C)c3F)n2)cc1`
output: 6.96

input: State its IC50: `Cc1cc(C)c(C(=O)n2nc(Nc3ccc(S(=O)(=O)NCCN(C)C)cc3)nc2N)s1`
output: 0.412

input: Using known records, supply IC50 for CC(O)c1ccc(F)c(C(=O)n2nc(Nc3ccc(S(N)(=O)=O)cc3)nc2N)c1F (stereo not drawn)
output: 11.2

* * *

The following compounds are shown together with reported pIC50 values.
Target system: PDGF-R (platelet derived growth factor receptor) beta subunit kinase domain (Homo sapiens)
Construct: nucleotides 1874-3507 of the human PDGF-R beta subunit kinase domain; polyhistidine (N)
Sequence (P09619 564-1106): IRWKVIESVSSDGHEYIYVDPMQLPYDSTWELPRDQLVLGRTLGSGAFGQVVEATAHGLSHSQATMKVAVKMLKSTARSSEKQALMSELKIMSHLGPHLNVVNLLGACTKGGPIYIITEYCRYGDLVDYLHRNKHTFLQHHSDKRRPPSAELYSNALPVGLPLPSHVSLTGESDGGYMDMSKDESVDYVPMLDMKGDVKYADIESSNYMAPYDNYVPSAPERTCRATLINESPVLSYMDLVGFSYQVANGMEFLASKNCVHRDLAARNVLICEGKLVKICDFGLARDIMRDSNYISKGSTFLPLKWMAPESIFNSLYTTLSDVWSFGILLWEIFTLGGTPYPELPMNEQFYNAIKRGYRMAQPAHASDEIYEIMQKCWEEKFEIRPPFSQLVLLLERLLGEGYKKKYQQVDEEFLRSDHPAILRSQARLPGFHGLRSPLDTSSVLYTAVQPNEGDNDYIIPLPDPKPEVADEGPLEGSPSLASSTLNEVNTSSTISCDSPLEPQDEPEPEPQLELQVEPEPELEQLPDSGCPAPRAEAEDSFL
Assay notes: Kinase Selectivity Assay PDGF-R
Assay type: biochemical
Measurement context: Kinase Selectivity, Tables 2a-2k; read-out: PDGF-R kinase IC50
Units for pIC50: none; it is -log10 of a concentration expressed in mol/L.

input: GET pIC50 where system = PDGF-R (platelet derived growth factor receptor) beta subunit kinase domain (Homo sapiens) and item = Nc1nc(Nc2ccc(S(N)(=O)=O)cc2)nn1C(=O)c1cccs1 [Cpd 14]
output: 6.72

input: Give pIC50 for this entry on PDGF-R (platelet derived growth factor receptor) beta subunit kinase domain (Homo sapiens): Nc1nc(Nc2ccc(S(N)(=O)=O)cc2)nn1C(=S)Nc1c(F)cccc1F [Cpd 66]
output: 5.80

input: # assay system PDGF-R (platelet derived growth factor receptor) beta subunit kinase domain (Homo sapiens): give pIC50 of Cc1ccsc1C(=O)n1nc(Nc2ccc(N3CCNC3=O)cc2)nc1N [Cpd 113]
output: 6.43

input: Write down the reported pIC50 (system: PDGF-R (platelet derived growth factor receptor) beta subunit kinase domain (Homo sapiens)) of Cc1ccsc1C(=O)n1nc(Nc2ccc(S(=O)(=O)Nc3ccccn3)cc2)nc1N [Cpd 121]
output: 6.40

input: Send back PDGF-R (platelet derived growth factor receptor) beta subunit kinase domain (Homo sapiens) pIC50 of Cc1ccccc1C(=O)n1nc(Nc2ccc(S(N)(=O)=O)cc2)nc1N [Cpd 57] only.
output: 5.38

input: GET pIC50 where system = PDGF-R (platelet derived growth factor receptor) beta subunit kinase domain (Homo sapiens) and item = Nc1ccc(F)c(C(=O)n2nc(Nc3ccc(S(N)(=O)=O)cc3)nc2N)c1F [Cpd 55]
output: 4.79

input: Jot down pIC50 (PDGF-R (platelet derived growth factor receptor) beta subunit kinase domain (Homo sapiens)) of Cc1cc(C)c(C(=O)n2nc(Nc3ccc(S(=O)(=O)Nc4ccccn4)cc3)nc2N)s1 [Cpd 120] .
output: 6.09

input: Check PDGF-R (platelet derived growth factor receptor) beta subunit kinase domain (Homo sapiens) data and give pIC50 for Cc1ccsc1C(=O)n1nc(Nc2ccc(N3CCCS3(=O)=O)cc2)nc1N [Cpd 116] .
output: 6.52

input: GET pIC50 | system: PDGF-R (platelet derived growth factor receptor) beta subunit kinase domain (Homo sapiens) | item: Cc1cc(C)c(C(=O)n2nc(Nc3ccc(-n4ccnc4)cc3)nc2N)s1 [Cpd 92]
output: 6.55

input: Answer briefly: pIC50 recorded on PDGF-R (platelet derived growth factor receptor) beta subunit kinase domain (Homo sapiens) for Nc1nc(Nc2ccc(S(N)(=O)=O)cc2)nn1C(=O)c1ccsc1 [Cpd 30]
output: 6.41

* * *

Target system: VEGF-R (vascular endothelial growth factor receptor-2) (Rattus norvegicus)
Construct: polyhistidine (6xHIS) (N)
Sequence (O08775 786-1343): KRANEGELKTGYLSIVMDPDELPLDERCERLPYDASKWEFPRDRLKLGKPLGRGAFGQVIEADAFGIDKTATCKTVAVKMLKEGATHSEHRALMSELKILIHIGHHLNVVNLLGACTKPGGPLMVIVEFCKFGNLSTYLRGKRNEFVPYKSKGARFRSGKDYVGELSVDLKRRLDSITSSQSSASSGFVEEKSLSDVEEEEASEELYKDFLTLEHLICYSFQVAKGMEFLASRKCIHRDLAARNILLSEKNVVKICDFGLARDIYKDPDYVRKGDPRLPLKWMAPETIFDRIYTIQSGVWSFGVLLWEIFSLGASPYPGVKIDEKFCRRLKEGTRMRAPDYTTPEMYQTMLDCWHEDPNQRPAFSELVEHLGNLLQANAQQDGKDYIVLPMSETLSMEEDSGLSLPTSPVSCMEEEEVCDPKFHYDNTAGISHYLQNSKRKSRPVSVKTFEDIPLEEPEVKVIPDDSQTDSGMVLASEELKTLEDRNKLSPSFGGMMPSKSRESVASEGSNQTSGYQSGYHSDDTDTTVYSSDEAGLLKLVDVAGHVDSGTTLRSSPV
Assay notes: VEGF-R Screening Assay
Assay type: biochemical
Measurement context: Kinase Selectivity, Tables 2a-2k; read-out: VEGF-R IC50
Experimental readout: log10(IC50) (log10 of the value in nM)
Short version: log10 scale, IC50, nM.

Some solved cases for reference:
Cc1ccsc1C(=O)n1nc(Nc2ccc(N3CCCS3(=O)=O)cc2)nc1N [Cpd 116]: 1.41
Cc1cc(C)c(C(=O)n2nc(Nc3ccc(S(=O)(=O)Nc4ccccn4)cc3)nc2N)s1 [Cpd 120]: 1.91

input: Check the records and state log10(IC50) for Nc1nc(Nc2ccc(S(=O)(=O)N3CCCCC3)cc2)nn1C(=O)c1cccs1 [Cpd 23]
output: 1.54

input: Input Nc1nc(Nc2cccc(Cl)c2)nn1C(=O)c1ccccc1 [Cpd 64] , output reported log10(IC50).
output: 1.71

input: Given Cc1cc(C)c(C(=O)n2nc(Nc3ccc(S(N)(=O)=O)cc3)nc2N)s1 [Cpd 33] , respond with its log10(IC50).
output: 1.36

input: Quick one: give measured log10(IC50) for Nc1nc(Nc2ccc(S(N)(=O)=O)cc2)nn1C(=O)c1sccc1Cl [Cpd 17]
output: 1.43

input: Retrieve log10(IC50) measured for CN1CCN(c2ccc(Nc3nc(N)n(C(=O)c4c(F)cccc4F)n3)cc2)CC1 [Cpd 71] and print it.
output: 2.63

input: Consider the molecule CCc1ccc(C(=O)n2nc(Nc3ccc(S(N)(=O)=O)cc3)nc2N)s1 [Cpd 32] and give its recorded log10(IC50).
output: 1.34

input: Return log10(IC50) (reported value) for this molecule: Nc1nc(Nc2ccc(S(N)(=O)=O)cc2)n(C(=S)Nc2c(F)cccc2F)n1 [Cpd 128]
output: 2.07

* * *

Target system: CDK1:Cyclin-B (Homo sapiens, UniProt P06493)
Construct: purchased New England Biolabs 6020; host or cells: insect cells
Sequence (P06493 whole entry): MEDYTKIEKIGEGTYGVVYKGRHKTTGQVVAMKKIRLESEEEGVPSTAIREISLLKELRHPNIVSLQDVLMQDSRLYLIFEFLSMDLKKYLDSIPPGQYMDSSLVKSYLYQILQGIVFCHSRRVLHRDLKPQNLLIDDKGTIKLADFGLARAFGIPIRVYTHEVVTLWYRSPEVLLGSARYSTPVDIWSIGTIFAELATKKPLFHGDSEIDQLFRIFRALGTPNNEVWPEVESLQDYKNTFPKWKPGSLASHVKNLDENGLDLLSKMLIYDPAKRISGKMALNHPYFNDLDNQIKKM
Sequence (P14635 whole entry partner): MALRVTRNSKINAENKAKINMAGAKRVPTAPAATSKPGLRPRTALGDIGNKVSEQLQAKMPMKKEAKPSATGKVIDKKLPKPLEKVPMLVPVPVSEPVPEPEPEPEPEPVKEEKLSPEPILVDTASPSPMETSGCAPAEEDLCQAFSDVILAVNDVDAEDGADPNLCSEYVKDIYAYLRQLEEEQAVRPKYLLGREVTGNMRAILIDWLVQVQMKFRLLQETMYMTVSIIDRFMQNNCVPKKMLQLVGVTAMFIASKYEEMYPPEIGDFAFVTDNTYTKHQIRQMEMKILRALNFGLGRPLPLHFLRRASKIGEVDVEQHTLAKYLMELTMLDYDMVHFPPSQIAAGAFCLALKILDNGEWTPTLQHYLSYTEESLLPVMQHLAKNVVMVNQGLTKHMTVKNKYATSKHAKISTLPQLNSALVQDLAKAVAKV
Assay notes: CDK1 Screening Assay
Type: biochemical
Measurement context: Table 1; read-out: CDK1 IC50
For each record, check the reported IC50: if it is below 60 nM write TRUE, else write FALSE.

Worked examples, 8 compounds total:
Nc1nc(Nc2ccc(S(N)(=O)=O)cc2)nn1C(=O)c1ccno1: FALSE
CCc1ccc(C(=O)n2nc(Nc3ccc(S(=O)(=O)NC)cc3)nc2N)s1: TRUE
Nc1nc(Nc2ccc(S(N)(=O)=O)cc2)nn1C(=O)c1c(F)cccc1F: TRUE
Nc1nc(Nc2ccc(S(=O)(=O)O)cc2)nn1C(=O)c1c(F)cccc1F: FALSE
Nc1nc(Nc2ccc(S(N)(=O)=O)cc2)nn1C(=O)c1ccco1: TRUE
Cc1ccc(F)c(C(=O)n2nc(Nc3ccc(S(N)(=O)=O)cc3)nc2N)c1Cl: TRUE
Nc1nc(Nc2ccc(S(N)(=O)=O)cc2)nn1C(=O)Cc1cccs1: FALSE
CN1CCN(c2ccc(Nc3nc(N)n(C(=O)c4c(F)cccc4F)n3)cc2)CC1: FALSE

Continue with the next compound.
input: Answer whether the compound `CCc1ccc(C(=O)n2nc(Nc3ccc(N4CCN(C)CC4)cc3)nc2N)s1` has IC50 strictly less than 60 nM
output: FALSE

* * *

Target system: CDK2 in complex with cyclin A (Homo sapiens, UniProt P24941)
Construct: purchased Upstate Biotech
Assay notes: Kinase Selectivity Assay CDK2
Type: biochemical
Measurement context: Kinase Selectivity, Tables 2a-2k
pIC50: −log10 of the molar value.
Decision: pIC50 compared against 6; not below it gives criterion met, below it gives criterion not met.

Nc1nc(Nc2cccc(Cl)c2)nn1C(=O)c1ccccc1 [Cpd 64]: criterion met
Nc1nc(Nc2ccccc2)n(C(=O)c2c(F)cccc2F)n1 [Cpd 124]: criterion not met
Nc1nc(Nc2ccccc2)n(C(=O)c2ccccc2)n1 [Cpd 125]: criterion not met
Nc1nc(Nc2ccccc2)nn1C(=O)c1ccccc1 [Cpd 62]: criterion met
Nc1nc(Nc2ccccc2)nn1C(=O)c1c(F)cccc1F [Cpd 61]: criterion met

input: pIC50 >= 6 for Nc1nc(Nc2ccccc2)nn1C(=O)Nc1ccccc1 [Cpd 65] ?
output: criterion met

input: Form field: pIC50 at least 6? Entry: Nc1nc(Nc2cccc(Cl)c2)nn1C(=O)c1c(F)cccc1F [Cpd 63]
output: criterion met

* * *

Test system: A375 malignant melanoma
Assay notes: Inhibition of Cell Proliferation (14C-thymidine incorporation), A375
Assay type: cell-based
Measurement context: Homo sapiens, A-375, A375 cell line
IC50 by entry:
Give the number; nM is assumed, so skip it.

Cc1ccsc1C(=O)n1nc(Nc2ccc(S(=O)(=O)NCCN(C)C)cc2)nc1N: 108
Cc1cc(C)c(C(=O)n2nc(Nc3ccc(S(=O)(=O)NCCN(C)C)cc3)nc2N)s1: 113
Cc1cc(C)c(C(=O)n2nc(Nc3ccc(S(=O)(=O)Nc4ccccn4)cc3)nc2N)s1: 259
Nc1nc(Nc2ccc(S(N)(=O)=O)cc2)nn1C(=O)c1sccc1F: 942

From here, focus on the item given below.
input: Supply reported IC50 belonging to this compound: `Cc1ccsc1C(=O)n1nc(Nc2ccc(N3CCCS3(=O)=O)cc2)nc1N`
output: 639
